Property: relative percent rate of oxidation; scope: individual molecules
Tested on: secondary alcohol dehydrogenase (SADH)
assayText: Activity of purified secondary alcohol dehydrogenase (inhibition, substrate specificity, Km)
Format: biochemical, Pseudomonas sp. ATCC 21439
settings: 2-butanol = 100%
Experimental: Secondary alcohol dehydrogenase (SADH) from an obligate methanol utilizer, Pseudomonas sp. ATCC 21439 was purified as follows. […] 0.05 M sodium phosphate buffer, pH 7.0 with 0.5 mM dithiothretol (buffer A) and were disrupted sonically (5×1 min.). The crude extract was separated by centrifugation. The crude extract was heat-treated at 50° C. in a water bath for 10 minutes. The resulting precipitate was removed by centrifugation. […]
Just the number please, in %, no unit attached.

INSERT INTO assay_data (molecule, measurementname, unitabbrev, valuereported) VALUES
  ('CCCO', 'relative percent rate of oxidation', '%', 2),
  ('CCCCC(C)O (stereo not shown)', 'relative percent rate of oxidation', '%', 2),
  ('CC(C)O', 'relative percent rate of oxidation', '%', 85);

Attention now turns to another entry.
Form field relative percent rate of oxidation, entry CC(O)C(C)O (stereo not shown) : 2.5
